Molecular target: T1, human IL-2Rγ (common cytokine receptor γ-chain) (human, UniProt P31785 23-262, limits assumed)
T1 construct: Recombinant human IL-2Rγ protein coated on the ELISA plate or immobilised on the CM5 chip; also called hu IL-2R; CD132
T1 sequence: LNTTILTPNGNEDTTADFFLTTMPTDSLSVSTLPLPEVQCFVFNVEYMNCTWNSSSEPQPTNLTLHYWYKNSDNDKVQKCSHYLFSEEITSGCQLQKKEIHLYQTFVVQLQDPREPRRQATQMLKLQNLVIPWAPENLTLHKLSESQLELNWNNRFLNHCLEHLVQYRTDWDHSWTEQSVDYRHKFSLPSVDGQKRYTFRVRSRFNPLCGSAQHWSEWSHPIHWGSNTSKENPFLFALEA
Assay: binding ELISA, periplasmic extract on coated human IL-2Rγ
Experimental: In a binding ELISA, human or mouse IL-2Rα, IL-2Rβ and IL-2Rγ proteins were coated directly on maxisorp microtiter plates overnight at 4° C. Free binding sites were blocked using 4% Marvel in PBS for 1 hour. Next, 1:5 dilution of P.E. in 1% Marvel/PBS were added to wells and incubated for 1 hour. […] Binding specificity was determined based on O.D. at 450 nm values compared to negative controls.
// boundary case: P.E. binding ELISA OD450 equal to 1 OD450 nm maps to NO; strictly smaller maps to YES

The examples below pair each entry with its known result.
- BINDER: "FJ1427_P035MP07D12 (VHH, Tested as soluble VHH fragment in periplasmic extract (P.E.); also called Clone nr; 668) VHH: QVQLVESGGGLVQAGGSLRLSCAASGRALSRLAMGWFRQAPGKEREFVVASSWGDDTFYADSVKGRFTFSRDNAKNTVYLQMNSLQPGDTAVYYCAAAPTSFATTAYSSSNSYAYWGQGTQVTVSS"
  DISCRETE LABEL: "YES"
- BINDER: "FJ1427_P035MP07E11 (VHH, Tested as soluble VHH fragment in periplasmic extract (P.E.); also called Clone nr) VHH: QVQLVESGGGLVQAGGSLRLSCAASGRTLSRYAMGWFRQAPGKEREFVTANSWGGDTYYADSVQGRFTFSRDNAKNTVYLQMNSLQPEDTAVYYCAAAPTSFATTAYSSSNSYAYWGQGTQVTVSS"
  DISCRETE LABEL: "YES"
- BINDER: "FJ1427_P035MP07F12 (VHH, Tested as soluble VHH fragment in periplasmic extract (P.E.); also called Clone nr; 670) VHH: EVQLVESGGGLVQAGDSLRLSCVASGRTLSRCAMGWFRKAPGKEREYVAISSWGGDTFYEDSVEGRFTFSRDNAKNTVYLQMNSLRPEDTAVYYCAAAPTSFATTAYSSSNSYAYWGQGTQVTVSS"
  DISCRETE LABEL: "YES"
- BINDER: "FJ1427_P035MP07E12 (VHH, Tested as soluble VHH fragment in periplasmic extract (P.E.); also called Clone nr) VHH: QVQLVESGGGLVQAGGSLRLSCAASGRTLSRYAMGWFRQAPGKEREFVTANSWGGDTYYTDSVEGRFTFSRDNAKNAVYLQMNSLQPEDTAVYYCAAAPTSFATTAYSSSNSYTYWGQGTQVTVSS"
  DISCRETE LABEL: "YES"
- BINDER: "FJ1427_P035MP07H11 (VHH, Tested as soluble VHH fragment in periplasmic extract (P.E.); also called Clone nr; 664) VHH: QVQLVESGGGLVQPGGSLRLSCAASGRTLSRYAMGWFRQAPGKDREFVAASSWGGDTFYADSVEGRFTFSRDNAENATYLQMNSLQPEDTAVYYCAAAPTSFATTAYSSSNSYGSWGQGTQVTVSS"
  DISCRETE LABEL: "NO"

### Prompt Hi there! Is P.E. binding ELISA OD450 for FJ1427_P035MP07B12 (VHH, Tested as soluble VHH fragment in periplasmic extract (P.E.); also called Clone nr) VHH: EVQLVESGGGLVQAGGSLRLSCAASGRTLSRYAMGWFRQAPGKEREYVAIDSWGGDTFYADSVEGRFTFSRDNAKNEVYLQMNSLQPEDTAVYYCAGAPTSFATTAYSSSNSYRYWGQGTQVTVSS below 1 OD450 nm, do you know?
### Response NO

### Prompt Does the reported P.E. binding ELISA OD450 of the following binder sit strictly below 1 OD450 nm? FJ1427_P035MP07C11 (VHH, Tested as soluble VHH fragment in periplasmic extract (P.E.); also called Clone nr) VHH: QVQLVESGGGLVQAGASLRLSCAASGRTLSRYAMGWFRQAPGKEREFVAASSWGGDTYYADSVEGRFTFSRDNAKNAVYLQMNSLQPEDTAVYYCAGAPTSFATTAYSSSNSYAYWGQGTQVTVSS
### Response YES

### Prompt P.E. binding ELISA OD450 strictly < 1 OD450 nm for this binder? FJ1427_P035MP07A12 (VHH, Tested as soluble VHH fragment in periplasmic extract (P.E.); also called Clone nr) VHH: QVQLQESGGGLVQAGGSLRLSCAASGRTLSRYAMGWFRQAPGSEREFVAASSWGGDTFYADSVEGRFTFSRDNAKNAVYLQMNSLQPEDTAAYYCAAAPTSFPTTAYSSSNSYAYWGQGTQVTVSS
### Response YES

### Prompt # strict comparison: is reported P.E. binding ELISA OD450 < 1 OD450 nm? input = FJ1427_P035MP07C12 (VHH, Tested as soluble VHH fragment in periplasmic extract (P.E.); also called Clone nr) VHH: QVQLVESGGGLVQAGGSLRLSCAASGRSLSRDAMGWFRQAPGKEREFVAVMSWGGDTFYTDSVEGRFTFSRDNAKNAVYLEMNDLQPEDTAVYYCAAAPTSFATTAYSSSNSYSYWGRGTQVTVSS
### Response YES

Source of measurements: patent US20240409645A1
